# Test system: HCC1599
# TEST_DESCRIPTION: drug sensitivity score (DSS), CellTiter-Blue viability (DSS (AUC-based score)); higher = stronger viability inhibition; extreme values may be limits of the assay
# MEASUREMENT_CONDITIONS: incubation time: 72 h
ASSAY_METRIC: drug sensitivity score
Simply state the number, no unit and no words.

NC(=O)c1cccc2cn(-c3ccc([C@@H]4CCCNC4)cc3)nc12 [MK-4827] :: 0
CC[C@@H]1C(=O)N(C)c2cnc(Nc3ccc(C(=O)N[C@H]4CC[C@H](N5CCN(CC6CC6)CC5)CC4)cc3OC)nc2N1C(C)C [Volasertib] :: 0
C[C@]12C=CC(=O)C=C1CC[C@@H]1[C@@H]2C(=O)C[C@@]2(C)[C@H]1CC[C@]2(O)C(=O)CO [Prednisone] :: 0

Read the next record carefully.
Fill blank: measured drug sensitivity score of the compound O=C(c1cc(Cc2n[nH]c(=O)c3ccccc23)ccc1F)N1CCN(C(=O)C2CC2)CC1 [Olaparib] is ____.
0

----------
# Tested on: MDA-MB-436
# TEST_DESCRIPTION: drug sensitivity score (DSS), CellTiter-Glo (DSS (AUC-based score)); higher = stronger drug effect (viability inhibition or cytotoxicity); extreme values may be limits of the assay
# MEASUREMENT_CONDITIONS: incubation time: 72 h
ASSAY_METRIC: drug sensitivity score
When you answer, write just the number.

Look over these answered cases.
Cc1c(C(=O)Nc2ccc(N3C[C@@H](C)O[C@@H](C)C3)nc2)cccc1-c1ccc(OC(F)(F)F)cc1 :: 2.73
CCCCCOC(=O)Nc1nc(=O)n([C@@H]2O[C@H](C)[C@@H](O)[C@H]2O)cc1F :: 0.812
COc1cc2c(cc1-c1c(C)noc1C)ncc1[nH]c(=O)n([C@H](C)c3ccccn3)c12 :: 0
C[C@@H]1C[C@H]2[C@@H]3CCC4=CC(=O)C=C[C@]4(C)[C@@]3(F)[C@@H](O)C[C@]2(C)[C@@]1(O)C(=O)CO :: 0

Please give the measured drug sensitivity score for this compound: N[C@@H](Cc1ccc(N(CCCl)CCCl)cc1)C(=O)O
16.6

Look at this compound and give its reported drug sensitivity score. CC/C(=C(\c1ccccc1)c1ccc(OCCN(C)C)cc1)c1ccccc1
0

----------
List of drug sensitivity score values.
# System: MDA-MB-231
# TEST_DESCRIPTION: drug sensitivity score (DSS), CellTiter-Glo (DSS (AUC-based score)); higher = stronger drug effect (viability inhibition or cytotoxicity); extreme values may be limits of the assay
# MEASUREMENT_CONDITIONS: incubation time: 72 h

Use the examples below as a reference point.
O=C(c1cc(Cc2n[nH]c(=O)c3ccccc23)ccc1F)N1CCN(C(=O)C2CC2)CC1 :: 0
Cn1cc(C[C@@H](N)C(=O)O)c2ccccc21 :: 0
COc1cc2c(N3CCN(C(=O)Nc4ccc(OC(C)C)cc4)CC3)ncnc2cc1OCCCN1CCCCC1 :: 0
CC[C@@H]1C(=O)N(C)c2cnc(Nc3ccc(C(=O)N[C@H]4CC[C@H](N5CCN(CC6CC6)CC5)CC4)cc3OC)nc2N1C(C)C :: 9.58
C[C@@H](C(=O)O)c1ccc(-c2ccccc2)c(F)c1 :: 0

Sample Cn1nnc2c(C(N)=O)ncn2c1=O [Temozolomide] — what was its drug sensitivity score?
0

Entry under review: O=NN(CCCl)C(=O)NC1CCCCC1 . Reported drug sensitivity score?
0

Which drug sensitivity score is listed for CCc1cnn2c(NCc3ccc[n+]([O-])c3)cc(N3CCCC[C@H]3CCO)nc12 ?
25.4

Return reported drug sensitivity score; argument: Cc1c(N)nc([C@H](CC(N)=O)NC[C@H](N)C(N)=O)nc1C(=O)N[C@H](C(=O)N[C@H](C)[C@@H](O)[C@H](C)C(=O)N[C@H](C(=O)NCCc1nc(-c2nc(C(=O)NCCC[S+](C)C)cs2)cs1)[C@@H](C)O)[C@@H](OC1OC(CO)C(O)C(O)C1OC1OC(CO)C(O)C(OC(N)=O)C1O)c1cnc[nH]1 (some centres undefined)
0
